tested-system: flag-tagged HIF1α (AA 786-826) / His6-tagged p300 (AA 323-423) complex (Homo sapiens, UniProt Q09472)
Construct: His6-tagged p300 (AA 323-423); made in house; host or cells: E. coli (pETDuet vector)
protocol-details: HIF1α p300 displacement assay (TR FRET, +CHAPS)
Type: binding
experimental-context: read-out: IC50 (nM) (HIF1α_p300 Displacement + CHAPS)
Bridge positions count the residues as written; N and C are the ends. Square brackets hold non-standard residues; d marks the D form. Peptide text beside a SMILES is read from it. R8 = C=CCCCCCC[C@@](C)(N)C(=O)O; S5 = C=CCCC[C@](C)(N)C(=O)O; Nle = CCCC[C@H](N)C(=O)O
property: IC50

compound	IC50
CCCC[C@@H]1NC(=O)[C@H](CC(C)C)NC(=O)[C@H](C(C)C)NC(=O)[C@@](C)(NC(=O)[C@H](CCC(=O)O)NC(=O)[C@H](CC(=O)O)NC(=O)[C@@H](NC(=O)[C@H](Cc2ccccc2)NC(C)=O)[C@@H](C)CC)CCCC=CCCCC2(CCCC=CCCC[C@](C)(C(=O)N[C@@H](CCCC)C(=O)N[C@@H](C)C(=O)N[C@@H](CC(C)C)C(N)=O)NC(=O)[C@H]([C@@H](C)CC)NC(=O)[C@H](C(C)C)NC(=O)[C@H](CC(C)C)NC2=O)NC1=O (some centres unmarked)	> 700 nM

Now for the compound whose IC50 we want.
Requested read-out: IC50. Entry: CCCC[C@@H]1NC(=O)[C@H](CC(C)C)NC(=O)[C@](C)(NC(=O)[C@H](CCC(=O)O)NC(=O)[C@H](CCC(=O)O)NC(=O)[C@H](CC(=O)O)NC(=O)[C@@H](NC(=O)[C@H](Cc2ccccc2)NC(C)=O)[C@@H](C)CC)CCCCCCC=CCCC[C@@](C)(C(=O)N[C@@H](CCCC)C(=O)N[C@@H](C)C(=O)N[C@@H](CC(C)C)C(N)=O)NC(=O)[C@H]([C@@H](C)CC)NC(=O)[C@H](C(C)C)NC(=O)[C@H](CC(C)C)NC(=O)[C@H](CO)NC1=O [SP-199] (Ac-FIDEE[R8]L[Nle]SLVI[S5][Nle]AL-NH2; staple 6-13) 200 to 400 nM
